# assayed_target: Mtb ThyX (thymidylate synthase ThyX) (Mycobacterium tuberculosis, UniProt P9WG57)
# Sequence (P9WG57 whole entry): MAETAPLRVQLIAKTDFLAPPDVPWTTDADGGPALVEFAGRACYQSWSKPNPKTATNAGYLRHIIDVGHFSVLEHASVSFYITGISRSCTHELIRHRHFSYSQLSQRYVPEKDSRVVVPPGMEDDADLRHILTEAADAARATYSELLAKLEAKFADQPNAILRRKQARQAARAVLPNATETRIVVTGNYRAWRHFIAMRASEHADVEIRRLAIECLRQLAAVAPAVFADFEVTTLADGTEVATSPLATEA
metric_name: Ki (µM)
One number for each entry, in µM.

# input So what does the record say about Ki for CC1=CC(=O)c2c(O)cccc2C1=O [plumbagin, 5-hydroxy-2-methyl-1,4-naphthoquinone] ?
# output 8.21
